The values you see were collected from patent US20170050966A1.

# system_name: CYP1A2 (Homo sapiens, UniProt P05177)
# Sequence (P05177 whole entry): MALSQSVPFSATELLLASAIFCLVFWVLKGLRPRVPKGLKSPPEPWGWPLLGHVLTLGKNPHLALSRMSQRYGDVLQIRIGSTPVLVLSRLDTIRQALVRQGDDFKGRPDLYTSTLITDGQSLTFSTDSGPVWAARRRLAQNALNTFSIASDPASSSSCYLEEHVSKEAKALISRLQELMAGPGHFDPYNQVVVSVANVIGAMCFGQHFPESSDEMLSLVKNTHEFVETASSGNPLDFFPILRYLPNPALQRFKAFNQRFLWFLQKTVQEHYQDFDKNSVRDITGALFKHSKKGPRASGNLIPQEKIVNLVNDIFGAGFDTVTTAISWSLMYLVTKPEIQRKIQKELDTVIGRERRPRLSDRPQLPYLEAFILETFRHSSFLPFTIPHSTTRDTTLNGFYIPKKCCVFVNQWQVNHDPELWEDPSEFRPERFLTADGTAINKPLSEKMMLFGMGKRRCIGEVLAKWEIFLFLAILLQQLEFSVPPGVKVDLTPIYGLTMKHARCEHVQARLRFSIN
# procedure_summary: CYP450 inhibition at 10 μM
# Type: biochemical
# recorded_conditions: probe Phenacetin, 1A2, substrate Phenacetin
value_type: inhibition at 10 µM
Please answer in the form of a number followed by its unit of measurement.

inhibition at 10 µM for C[C@@H](C(=O)Nc1ccnc(-c2cnc(N3CCC[C@H]3C(F)(F)F)nc2)n1)n1cnc2c1c(=O)n(C)c(=O)n2C ?
9%

* * *

# procedure_summary: PK comparison of capsule and suspension formulations
# recorded_conditions: monkey, in vivo, po, 250 mg, Capsule (fed), monkeys
# Experimental: Another study was conducted to compare the PK parameters of capsule and suspension formulations of Compound 2. All monkeys were dosed with 250 mg Compound 2. Two groups were dosed with the capsule formulation: one fasted and one allowed food ad libitum. The animals that received the suspension formulation were dosed using a nasogastric tube and were fasted. […]
value_type: bioavailability (%)
# number only, unit % dropped from output

bioavailability for C[C@@H](C(=O)Nc1ccnc(-c2cnc(N3CCC[C@H]3C(F)(F)F)nc2)n1)n1cnc2c1c(=O)n(C)c(=O)n2C [Compound 2] ?
10
